test system: bone cells containing osteoclast cells; test: Pit formation assay: inhibition of osteolysis (absorption pits on ivory slices); assay type: cell-based, ICR mice; conditions: 72 h, 10 µM
measured parameter: No. of absorption pits (Mean ± SD)

molecule="CC(C)=CCCC(C)=CCc1c(O)cc(O)c(C(=O)Cc2ccccc2)c1O [Compound 46]" value=125.3
molecule="CC(C)=CCc1c(O)cc(O)c(C(=O)Cc2ccccc2)c1O [Compound 42]" value=31.7
molecule="CC(C)=CCCC(C)=CCC1=C(O)C(CC=C(C)CCC=C(C)C)(CC=C(C)CCC=C(C)C)C(=O)C(C(=O)Cc2ccccc2)=C1O (centres unmarked) [Compound 44]" value=7.7
molecule="CC(C)=CCc1c(O)cc(O)c(C(=O)CC(C)C)c1C [Compound 50]" value=40.1
molecule="CC(C)=CCc1c(O)cc(O)c(C(=O)C(C)C)c1O [Compound 14]" value=26.0
molecule="CC(C)CC(=O)C1=C(O)C(Cc2ccccc2)=C(O)C(Cc2ccccc2)(Cc2ccccc2)C1=O [Compound 36]" value=3.8
molecule="CC(C)=CCCC(C)=CCc1c(O)c(CC=C(C)CCC=C(C)C)c(O)c(C(=O)Cc2ccccc2)c1O [Compound 43]" value=11.3
molecule="CC(C)=CCc1c(O)cc(C)c(C(=O)CC(C)C)c1O [Compound 49]" value=44.3

---

test system: bone cells containing osteoclast cells; experiment: Pit formation assay: inhibition of osteolysis (absorption pits on ivory slices); type: cell-based, ICR mice; conditions: 72 h, 10 µM
Class definitions on No. of absorption pits (Mean ± SD): lo: < 5; mid: ≥ 5 and < 20; hi: ≥ 20

compound="CC(C)=CCc1c(O)c(CC=C(C)C)c(O)c(C(=O)Cc2ccccc2)c1O [Compound 39]" category_label=hi
compound="CC(C)=CCc1c(O)c(O)c(CC=C(C)C)c(C(=O)CC(C)C)c1O [Compound 25]" category_label=lo
compound="CC(C)=CCc1c(O)ccc(C(=O)CC(C)C)c1O [Compound 54]" category_label=hi
compound="CC(C)=CCC1=C(O)C(CC=C(C)C)(CC=C(C)C)C(=O)C(C(=O)CC(C)CCCC(C)C)=C1O (centres unmarked) [Compound 22]" category_label=lo
compound="CC(C)=CCC1=C(O)C(O)(CC=C(C)C)C(=O)C(C(=O)c2ccccc2)=C1O (centres unmarked) [Compound 32]" category_label=hi
compound="CC(=O)C1=C(O)C(CC=C(C)C)=C(O)C(O)(CC=C(C)C)C1=O (centres unmarked) [Compound 30]" category_label=hi
compound="CC(C)=CCCC(C)=CCC1(CC=C(C)CCC=C(C)C)C(=O)C(C(=O)CC(C)C)=C(O)C=C1O (centres unmarked) [Compound 21]" category_label=lo
compound="CC(C)=CCc1cc(C(=O)CC(C)C)c(O)cc1O [Compound 55]" category_label=mid
compound="CC(C)=CCCC(C)=CCc1c(O)c(CC=C(C)CCC=C(C)C)c(O)c(C(=O)CC(C)C)c1O [Compound 19]" category_label=hi
compound="CC(C)=CCCC(C)=CCC1=C(O)C(CC=C(C)CCC=C(C)C)(CC=C(C)CCC=C(C)C)C(=O)C(C(=O)CC(C)C)=C1O (centres unmarked) [Compound 20]" category_label=lo
compound="CC(C)=CCC1=C(O)C(CC=C(C)C)(CC=C(C)C)C(=O)C(C(=O)CC(C)C)=C1O [Compound 16]" category_label=lo
compound="CC(C)CC(=O)C1=C(O)C(Cc2ccccc2)=C(O)C(O)(Cc2ccccc2)C1=O (centres unmarked) [Compound 33]" category_label=mid
compound="Cc1cc(O)cc(O)c1C(=O)CC(C)C [Compound 47]" category_label=hi
compound="CC(C)=CCc1c(O)c(CC=C(C)C)c(O)c(C(=O)CC(C)C)c1O [Compound 15]" category_label=mid
compound="CC(C)CC(=O)c1c(O)c(Cc2ccccc2)c(O)c(Cc2ccccc2)c1O [Compound 34]" category_label=mid

---

test system: bone cells containing osteoclast cells; assay: Pit formation assay: inhibition of osteolysis (absorption pits on ivory slices); type: cell-based, ICR mice; conditions: 72 h, 10 µM
# binarize No. of absorption pits (Mean ± SD): threshold 30 inclusive, high side yes (1), low side no (0)

compound="CC(C)=CCOc1c(CC=C(C)C)c(C)c(C(=O)CC(C)C)c(O)c1CC=C(C)C [Compound 51]" category_label="yes (1)"
compound="CC(C)=CCOc1cc(C)c(C(=O)CC(C)C)c(O)c1 [Compound 48]" category_label="yes (1)"
compound="CC(C)CCc1c(O)c(CCC(C)C)c(O)c(C(=O)CC(C)C)c1O [Compound 37]" category_label="no (0)"
compound="CC(C)=CCOc1ccc(C(=O)CC(C)C)c(O)c1 [Compound 53]" category_label="yes (1)"

---

tested on: bone cells containing osteoclast cells; assay: Pit formation assay: inhibition of osteolysis (absorption pits on ivory slices); assay type: cell-based, ICR mice; conditions: 72 h, 10 µM
# binarize No. of absorption pits (Mean ± SD): threshold 60 inclusive, high side true, low side false

compound="CC(C)=CCCC(C)=CCC1(CC=C(C)CCC=C(C)C)C(=O)C(C(=O)Cc2ccccc2)=C(O)C=C1O (stereo not shown) [Compound 45]" category_label=false
compound="CC(C)=CCC1(CC=C(C)C)C(=O)C(C(=O)Cc2ccccc2)=C(O)C=C1O [Compound 41]" category_label=false
compound="O=C(Cc1ccccc1)c1c(O)cc(O)cc1O [Compound 38]" category_label=false
compound="CC(C)CCCC(C)CC(=O)c1c(O)cc(O)cc1O (stereo not shown) [Compound 6]" category_label=true
compound="CC(C)=CCC1(CC=C(C)C)C(=O)C(C(=O)C(C)C)=C(O)C=C1O [Compound 13]" category_label=false
compound="CC(C)CC(=O)c1ccc(O)cc1O [Compound 52]" category_label=true
compound="CC(C)=CCC1(CC=C(C)C)C(=O)C(C(=O)CC(C)CCCC(C)C)=C(O)C=C1O (stereo not shown) [Compound 24]" category_label=false
